Target: T1, Mouse ST2 (mouse, UniProt P14719 27-332, limits assumed)
T1 construct: also called mouse ST2 protein
T1 sequence (looked up): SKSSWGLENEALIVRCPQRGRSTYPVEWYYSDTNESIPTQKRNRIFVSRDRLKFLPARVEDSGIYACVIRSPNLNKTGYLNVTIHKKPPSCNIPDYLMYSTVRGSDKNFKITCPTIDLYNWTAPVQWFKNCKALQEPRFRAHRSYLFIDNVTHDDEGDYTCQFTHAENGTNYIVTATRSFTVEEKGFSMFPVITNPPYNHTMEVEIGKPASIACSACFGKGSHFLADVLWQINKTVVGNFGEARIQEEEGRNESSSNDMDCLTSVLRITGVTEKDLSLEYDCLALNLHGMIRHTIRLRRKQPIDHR
Assay: SPR (Carterra), antibody immobilized, ST2 analyte, 1:1
measured_parameter: koff (s⁻¹)
Your answer is read as s⁻¹, so omit the unit and give the number.

INSERT INTO assay_data (binder, measured_parameter, measured_value) VALUES
  ('Human ST2 IgG1 Antibody 9 (antibody, V domains shown, IgG1, kappa; also called ST2 Antibody 9) VH: EVQLLESGGGLVQPGGSLRLSCAASGFAFSSHWMHWVRQAPGKGLEWVATISSGSHSIHYADSVKGRFTISRDNSKNTLYLQMNSLRAEDTAVYYCAREAGTSYYYYGMDVWGKGTTVTVSS VL: DIQMTQSPSSLSASVGDRVTITCQASQDIRNYLNWYQQKPGKAPKLLIYKASSLESGVPSRFSGSGSGTDFTLTISSLQPEDFATYYCQQSYSTPPTFGGGTKVEIKR', 'koff', 0.032);

Now for another entry.
// lookup koff for Human ST2 IgG1 Antibody 105 (antibody, V domains shown, IgG1, kappa) VH: EVQLLESGGGLVQPGGSLRLSCAASGFTFSSYAMHWVRQAPGKGLEWVAVMSYDGRHEYYADSVKGRFTISRDNSKNTLYLQMNSLRAEDTAVYYCASTDYDIGGYSLPLDYWGQGTLVTVSS VL: DIQMTQSPSSLSASVGDRVTITCRASQSVSSWLAWYQQKPGKAPKLLIYAASNLQSGVPSRFSGSGSGTDFTLTISSLQPEDFATYYCQQSYDVPWTFGQGTRLEIKR
0.07
